- System: HCT-15 colon
- method notes: NCI tumour cell line growth inhibition, 48 h
endpoint label: TGI (µM)
Value expressed in µM; do not type the unit.

input: Give its TGI value. Item: CN1CCN(CCCOc2cccc3nc(Nc4ccc(Cl)c(C(F)(F)F)c4)ccc23)CC1
output: 2.64

input: Give its TGI value. Item: CN(CCCNC(=O)CCOCCOCCOCCNC(=O)Cc1ccc2ccc3cccc4ccc1c2c34)CCCNc1cc(-c2ccc3ccccc3c2)nc2ccccc12
output: 2.81

input: Give its TGI value. Item: COc1cc(-c2ccccc2N)c2cccnc2c1OC
output: 16.1

input: Give its TGI value. Item: CCOC(=O)Oc1ccc2c(c1)c(=O)c1c(NCCN(CC)CC)ccc3nnn2c31
output: 16.6

---

- Tested on: M19-MEL melanoma
- method notes: NCI tumour cell line growth inhibition, 48 h
Record form. Attribute: TGI. Fill in for each entry.

input: Identify the measured TGI of CCOc1ccc(NC(=O)CC2C(=O)Nc3ccccc3S2(=O)=O)cc1 (stereo unspecified) for M19-MEL melanoma.
output: > 100 µM

input: Identify the measured TGI of COc1ccc(/C=C/C(=O)c2sc(-n3nc(-c4ccccc4)cc3-c3ccccc3)nc2C)cc1 for M19-MEL melanoma.
output: > 100 µM

input: Identify the measured TGI of CC(=O)O[C@H]1CC[C@@]2(C)C(=CC[C@@H]3C2CC[C@]2(C)Nc4nc5ccccc5cc4CC32)C1 (stereo partly specified) for M19-MEL melanoma.
output: 12.2 µM

input: Identify the measured TGI of CC1(c2ccc(Cl)cc2)C2C(=O)NC(=O)C1C(=O)NC2=O (stereo unspecified) for M19-MEL melanoma.
output: > 100 µM

input: Identify the measured TGI of CC(C)(C)C(C#N)(C#N)c1ccc(C(C#N)(C#N)C(C)(C)C)nn1 for M19-MEL melanoma.
output: > 100 µM

input: Identify the measured TGI of NC(=O)NC1C(C(N)=O)N(Cc2ccccc2)C(=O)N1Cc1ccccc1 (stereo unspecified) for M19-MEL melanoma.
output: > 100 µM

input: Identify the measured TGI of NS(=O)(=O)OCCCCCCCOS(N)(=O)=O for M19-MEL melanoma.
output: 1300 µM

input: Identify the measured TGI of CC(=O)[CH-]C(=O)c1ccccc1.CC(=O)[CH-]C(=O)c1ccccc1.C[C@]12CCC(=O)C=C1CC[C@@H]1C2CC[C@@]2(C)C1CC[C@]2(C)[O-].C[C@]12CCC(=O)C=C1CC[C@@H]1C2CC[C@@]2(C)C1CC[C@]2(C)[O-].Cl.[Ti+4] (stereo partly specified) for M19-MEL melanoma.
output: > 100 µM

input: Identify the measured TGI of CC(=O)NC(CC(C)C)C(=O)NC(Cc1ccccc1)C(=S)N1CCCC1 (stereo unspecified) for M19-MEL melanoma.
output: > 100 µM

input: Identify the measured TGI of CCc1nc2ccc(NCCN(C)C)c3c(=O)c4ccccc4n1c23 for M19-MEL melanoma.
output: 10.4 µM

input: Identify the measured TGI of COc1cccc(-c2cc(=O)c3ccccc3[nH]2)c1 for M19-MEL melanoma.
output: > 100 µM

input: Identify the measured TGI of CSC(=Nc1ccccc1)/N=C(\SCc1ccccc1)N(C)C for M19-MEL melanoma.
output: 3.36 µM

input: Identify the measured TGI of O=C1Nc2ccccc2Nc2ccncc21 for M19-MEL melanoma.
output: > 100 µM

input: Identify the measured TGI of C=CCc1cc(OC)c2c(c1)C(OC)CC(c1ccc(OC)c(OC)c1)O2 (stereo unspecified) for M19-MEL melanoma.
output: > 100 µM

input: Identify the measured TGI of COc1cc(CCc2ccc(N)cc2)cc(OC)c1OC for M19-MEL melanoma.
output: > 100 µM

input: Identify the measured TGI of c1ccc2c(c1)cc1n2CC2CN=NC12 (stereo unspecified) for M19-MEL melanoma.
output: > 100 µM

---

- System: PC-3 prostate
- method notes: NCI tumour cell line growth inhibition, 48 h; in the data active = GI50 below about 0.43 µM; inactive = the rest
Your reply should match one of these outcome classes. active, inactive

input: # outcome recorded in this test, key = COC(=O)[C@H]1CCCN1C(=O)[C@H]1CCCN1C(=O)[C@H](Cc1c[nH]c2ccccc12)NC(=S)Nc1cc(C(F)(F)F)cc(C(F)(F)F)c1
output: inactive

input: # outcome recorded in this test, key = N#CC1c2ccccc2C=CN1C(=O)N(c1ccccc1)c1ccccc1 (stereo not drawn)
output: inactive

input: # outcome recorded in this test, key = CCCCCCCCCCCC[n+]1ccc2ccccc2c1
output: active

input: # outcome recorded in this test, key = Cn1cc(C2=C(c3cn(CCCCCSC(=N)N)c4ccccc34)C(=O)NC2=O)c2ccccc21
output: inactive

input: # outcome recorded in this test, key = O=C1/C=C/[C@@H](O)[C@@H]2C[C@@H](O)C[C@H]2/C=C/CCC[C@H](C(F)(F)F)O1
output: inactive

input: # outcome recorded in this test, key = CCCCCCCCCCCCCC[C@@H](O)[C@H]1CC[C@H]([C@H]2CC[C@H]([C@H](O)CCCCCC[C@@H](O)CC3=C[C@H](C)OC3=O)O2)O1
output: inactive

input: # outcome recorded in this test, key = NC(=S)c1c(N)n(C2OC(CO)C(O)C2O)c2ncnc(N)c12 (stereo not drawn)
output: active

input: # outcome recorded in this test, key = COc1cc2c3c(n(C)c(=O)c2cc1OC)-c1ccc(C#N)cc1C3=O
output: inactive

input: # outcome recorded in this test, key = O=C1Cc2cc(C(=O)NC3C[C@H]4CC[C@@H](C3)N4S(=O)(=O)CC3CCN(CCCC(F)(F)F)CC3)c(Cl)cc2N1 (stereo partly drawn)
output: inactive

input: # outcome recorded in this test, key = O=[N+]([O-])c1cccc(C2CC(c3ccccc3)=Nc3ccccc3S2)c1 (stereo not drawn)
output: inactive

input: # outcome recorded in this test, key = COc1cc2cc(Oc3ccc(NC(=O)Nc4ccc(Cl)c(Cl)c4)cc3)c(C)nc2cc1OC
output: inactive

input: # outcome recorded in this test, key = COc1cc(-c2nn(-c3cccc(NC(=O)c4ccc(Cl)c(C(F)(F)F)c4)c3)cc2-c2ccncc2)ccc1Cl
output: inactive

input: # outcome recorded in this test, key = Cn1c(-c2c(N)n(CCCN3CCOCC3)c3nc(C#N)c(C#N)nc23)nc2ccccc21
output: inactive

input: # outcome recorded in this test, key = CN1C(=O)C2(c3ccccc31)N(c1ccc(Cl)cc1)C(=O)C2(c1ccccc1)c1ccccc1 (stereo not drawn)
output: inactive

input: # outcome recorded in this test, key = COc1ccc2c(OCc3nnc4ccc(-c5ccccc5)nn34)ccnc2c1
output: inactive

input: # outcome recorded in this test, key = CSc1ccc2c(c1)C(N1CCN(C)CC1)Cc1ccccc1S2 (stereo not drawn)
output: inactive

input: # outcome recorded in this test, key = COC(=O)c1ccc(NC(=O)Oc2ccc(N(CCCl)CCCl)cc2)cc1
output: inactive

input: # outcome recorded in this test, key = c1cc2c(cn1)Nc1ccncc1S2
output: inactive

input: # outcome recorded in this test, key = O=C(CC(Cl)=C(Cl)Cl)c1cccc(Cl)c1Cl
output: inactive

input: # outcome recorded in this test, key = Oc1[nH]c2ccccc2c1/C=c1/cc2c(c(-c3ccc(F)cc3)n1)=Nc1ccccc1-2
output: active

input: # outcome recorded in this test, key = CN(Cc1cnc2nc(N)nc(N)c2n1)c1ccc(C(=O)NC(CCC(=O)O)C(=O)O)cc1Br (stereo not drawn)
output: active

input: # outcome recorded in this test, key = C#CCOc1ccc2ncnc(Nc3ccc(NC(=O)C=C)cc3)c2c1
output: inactive

input: # outcome recorded in this test, key = COc1ccc(N(C)c2nc(N)nc3sc4c(c23)CCCC4)cc1
output: active

---

Record form. Attribute: TGI. Fill in for each entry.
- Test system: SK-MEL-28 melanoma
- method notes: NCI tumour cell line growth inhibition, 48 h
Value expressed in µM; do not type the unit.

input: Give its TGI value. Item: NS(=O)(=O)OCCCCCCCOS(N)(=O)=O
output: 1680

input: Give its TGI value. Item: O=C1C(CN2CCOCC2)CCCC1CN1CCOCC1 (stereo unspecified)
output: 3.83

input: Give its TGI value. Item: COC(=O)CSSCc1ccc([N+](=O)[O-])cc1
output: 36.7

input: Give its TGI value. Item: C=CC(=O)N1CC2(CC(n3nc(-c4ccc5c(cnn5C)c4)c(-c4c(Cl)c(C)cc5[nH]ncc45)c3C)C2)C1
output: 5.44

input: Give its TGI value. Item: COc1ccc(-n2sc3ncccc3c2=O)cc1
output: 44.3

input: Give its TGI value. Item: O=C(NNc1nc(-c2ccccc2)cs1)C(F)(F)F
output: 88.8

input: Give its TGI value. Item: CC1CC(=O)N(N(C)C)C(C#N)(C#N)C1(C#N)C#N (stereo unspecified)
output: 34.3

input: Give its TGI value. Item: c1ccc2c3c([nH]c2c1)C(c1ccc(C2NCCc4c2[nH]c2ccccc42)cc1)NCC3 (stereo unspecified)
output: 3.18

input: Give its TGI value. Item: COc1cc2cc(Oc3ccc(NC(=O)Nc4ccc(Cl)c(Cl)c4)cc3)c(C)nc2cc1OC
output: 14.7
